# run-description: Solubility
# Assay type: physicochemical
# assay-context: water with taxifolin glucoside, aqueous with cosolvent or surfactant or cyclodextrin; suitable amounts of taxifolin glucoside, molar ratio about 1:1; read-out: solubility of taxifolin in water in the presence of taxifolin glucoside
measurement-label: solubility

In: Entry under review: O=C1c2c(O)cc(O)cc2O[C@H](c2ccc(O)c(O)c2)[C@H]1O [taxifolin] . Reported solubility?
Out: ≥ 20 mg/mL

----------
# run-description: Solubility
# Type: physicochemical
# assay-context: water, typical; read-out: solubility of taxifolin in water
measurement-label: solubility

In: Which solubility is listed for O=C1c2c(O)cc(O)cc2O[C@H](c2ccc(O)c(O)c2)[C@H]1O [taxifolin] ?
Out: ~1000 µg/mL
